- MEASUREMENT DESCRIPTION: Maleimide hydrolysis kinetics (pre-incubation in buffer, then reaction with T289C mAb)
- Format: physicochemical
- EXPERIMENTAL PARAMETERS: sodium phosphate buffer; pH 8.6, 22° C.; read-out: Hydrolysis T1/2 (maleimide) (converted)
MEASURE: half-life at 1 mM (min)

• O=C(CCCCC1SCC2NC(=O)NC21)NCCOCCOCCOCCOCCOCCOCCOCCNC(=O)Cc1ccc(N2C(=O)C=CC2=O)cc1 (stereo not drawn) [Phenyl maleimide-PEG-biotin, maleimidophenylacetyl-PEG7-biotin] = 18
• O=C(CCCCC1SCC2NC(=O)NC21)NCCOCCOCCOCCOCCOCCOCCOCCNC(=O)CCN1C(=O)C=CC1=O (stereo not drawn) [Alkyl maleimide-PEG-biotin, maleimidoproprionyl-PEG7-biotin, reference compound] = 60
• O=C(CCCCC1SCC2NC(=O)NC21)NCCOCCOCCOCCOCCOCCOCCOCCNC(=O)c1cc(N2C(=O)C=CC2=O)ccc1F (stereo not drawn) [F-phenyl maleimide-PEG-biotin, 2-fluoro-5-maleimidophenyl-PEG7-biotin] = 6

====

- MEASUREMENT DESCRIPTION: Maleimide hydrolysis kinetics (pre-incubation in buffer, then reaction with T289C mAb)
- Format: physicochemical
- EXPERIMENTAL PARAMETERS: sodium phosphate buffer; pH 7.4, 22° C.; read-out: Hydrolysis T1/2 (maleimide) (converted)
MEASURE: half-life at 1 mM (h)

* O=C(CCCCC1SCC2NC(=O)NC21)NCCOCCOCCOCCOCCOCCOCCOCCNC(=O)Cc1ccc(N2C(=O)C=CC2=O)cc1 (stereo not drawn) [Phenyl maleimide-PEG-biotin, maleimidophenylacetyl-PEG7-biotin] | 2.3
* O=C(CCCCC1SCC2NC(=O)NC21)NCCOCCOCCOCCOCCOCCOCCOCCNC(=O)c1cc(N2C(=O)C=CC2=O)ccc1F (stereo not drawn) [F-phenyl maleimide-PEG-biotin, 2-fluoro-5-maleimidophenyl-PEG7-biotin] | 1.1
* O=C(CCCCC1SCC2NC(=O)NC21)NCCOCCOCCOCCOCCOCCOCCOCCNC(=O)CCN1C(=O)C=CC1=O (stereo not drawn) [Alkyl maleimide-PEG-biotin, maleimidoproprionyl-PEG7-biotin, reference compound] | 7.7
